Reference source: PubChem BioAssay AID624418

Experiment: qHTS of GLP-1 Receptor Inverse Agonists: Cytotox Screen;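 also: loss of luciferase light is scored as toxicity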
Settings: HEK293 cAMP-luciferase reporter cells, luminescence, 24 h; series mostly up to 38.3 µM
The campaign covered roughly 410,000 compounds. About 530 (0.13%) were called active. Inconclusive results (about 5%) are left out. Calls follow the shape of the dose curve; as a rule, active = well fitted inhibition curve with a large enough effect; inconclusive = small, poorly fitted or top-dose-only effect, or another doubt; inactive = no such curve, though single readings can be large or run the other way. What follows is part of a selection rich in actives, with near analogues and random picks from the rest.
Assign a class; possible classes are 1 (active), -1 (inactive)

Reference set, count: 5
>  <compound>
CCCCN(CC)C(=O)c1c[nH]c2ccc(S(=O)(=O)Nc3cccc(OC)c3)cc2c1=O

>  <group label>
-1

$$$$
>  <compound>
CC1CCCCN1CC(=O)N1CCCc2c1c(=O)oc1ccc(OCc3ccccc3)cc21 (stereo not given)

>  <group label>
-1

$$$$
>  <compound>
CCN1CCN(c2ncnc3c2cnn3-c2ccc(C)c(C)c2)CC1

>  <group label>
-1

$$$$
>  <compound>
Cc1ccc(Cl)cc1NC(=O)/C(C#N)=C\c1cn(Cc2ccc(F)cc2)c2ccccc12

>  <group label>
-1

$$$$
>  <compound>
CSc1oc(-c2cccs2)nc1S(=O)(=O)c1ccc(Br)cc1

>  <group label>
-1

$$$$

// return assay outcome for Cc1ccccc1CN1CCC(CNC(=O)c2cc3ccc4cccnc4c3[nH]2)CC1 -1

Dear all, I need the recorded test outcome for O=C(Nc1ccc(Br)cc1)c1ccc(Br)c(S(=O)(=O)NCc2ccccc2)c1 , thank you. -1

Name the outcome recorded for COc1ccc(NC(=O)C(c2ccccc2)N2Cc3ccccc3C2=O)cc1 (stereo not given) in the assay. -1

Outcome? O=C1/C(=C\c2ccc([N+](=O)[O-])cc2)CS(=O)(=O)C/C1=C/c1ccc([N+](=O)[O-])cc1 1

Hey, what did the test say about Cc1ccc(OC(=O)CSc2nnc(-c3cccs3)o2)cc1 ? -1
